Target: T1, Gal4 transcriptional activation domain (AD) fused in frame with AR (yeast, UniProt P10275 1-920, limits assumed); further: unit not given here
T1 sequence (looked up): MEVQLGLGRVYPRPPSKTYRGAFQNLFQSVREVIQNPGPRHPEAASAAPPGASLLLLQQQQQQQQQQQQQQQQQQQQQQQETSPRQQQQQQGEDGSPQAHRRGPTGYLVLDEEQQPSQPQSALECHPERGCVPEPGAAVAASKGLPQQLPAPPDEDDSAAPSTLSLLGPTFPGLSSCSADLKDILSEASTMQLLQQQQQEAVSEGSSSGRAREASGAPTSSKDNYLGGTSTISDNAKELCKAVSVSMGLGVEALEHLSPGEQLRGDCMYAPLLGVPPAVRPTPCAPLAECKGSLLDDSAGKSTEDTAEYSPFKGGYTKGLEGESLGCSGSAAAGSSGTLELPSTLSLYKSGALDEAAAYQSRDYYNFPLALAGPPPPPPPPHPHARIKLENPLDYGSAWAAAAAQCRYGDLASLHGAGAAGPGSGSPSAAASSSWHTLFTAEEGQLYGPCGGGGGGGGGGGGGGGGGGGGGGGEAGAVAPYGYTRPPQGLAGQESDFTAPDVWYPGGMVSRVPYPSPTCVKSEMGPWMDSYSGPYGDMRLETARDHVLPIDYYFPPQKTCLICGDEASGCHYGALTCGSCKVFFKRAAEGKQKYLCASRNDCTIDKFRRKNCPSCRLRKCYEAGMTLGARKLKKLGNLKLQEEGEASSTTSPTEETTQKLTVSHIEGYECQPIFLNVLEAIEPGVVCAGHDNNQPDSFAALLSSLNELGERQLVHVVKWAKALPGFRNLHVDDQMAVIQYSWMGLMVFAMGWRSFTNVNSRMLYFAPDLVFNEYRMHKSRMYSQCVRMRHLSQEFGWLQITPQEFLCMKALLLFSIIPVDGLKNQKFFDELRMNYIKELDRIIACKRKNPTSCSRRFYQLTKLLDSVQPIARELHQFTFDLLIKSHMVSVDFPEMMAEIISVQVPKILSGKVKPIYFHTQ
Experiment: cell-based or functional assay
# label = Condition met if β-galactosidase activity (yeast two-hybrid), DHT < 1 else Condition not met

binder="B18C4 (peptide) MKLLSSIEQACDICRLKKLKCSKEKPKCAKCLKNNWECRYSPKTKRSPLTRAHLTEVESRLERLEQLFLLIFPREDLDMILKMDSLQDIKALLTGLFVQDNVNKDAVTDRLASVETDMPLTLRQHRISATSSSEESSNKGQRQLTVSEFDSPWVWFGGEPGLNLLDLQPS" qualitative_label="Condition not met"
binder="B22F6 (peptide) MKLLSSIEQACDICRLKKLKCSKEKPKCAKCLKNNWECRYSPKTKRSPLTRAHLTEVESRLERLEQLFLLIFPREDLDMILKMDSLQDIKALLTGLFVQDNVNKDAVTDRLASVETDMPLTLRQHRISATSSSEESSNKGQRQLTVSEFLSGLEMEVVLWHYGRLDLQPS" qualitative_label="Condition not met"
binder="M4D1 (peptide) MKLLSSIEQACDICRLKKLKCSKEKPKCAKCLKNNWECRYSPKTKRSPLTRAHLTEVESRLERLEQLFLLIFPREDLDMILKMDSLQDIKALLTGLFVQDNVNKDAVTDRLASVETDMPLTLRQHRISATSSSEESSNKGQRQLTVSEFRFPFHEMVREWESMGLERVRYAEP" qualitative_label="Condition met"
binder="M7B1 (peptide) MKLLSSIEQACDICRLKKLKCSKEKPKCAKCLKNNWECRYSPKTKRSPLTRAHLTEVESRLERLEQLFLLIFPREDLDMILKMDSLQDIKALLTGLFVQDNVNKDAVTDRLASVETDMPLTLRQHRISATSSSEESSNKGQRQLTVSEFVGWFTGMAACSYAPDLDLQPS" qualitative_label="Condition not met"
binder="M2H3 (peptide) MKLLSSIEQACDICRLKKLKCSKEKPKCAKCLKNNWECRYSPKTKRSPLTRAHLTEVESRLERLEQLFLLIFPREDLDMILKMDSLQDIKALLTGLFVQDNVNKDAVTDRLASVETDMPLTLRQHRISATSSSEESSNKGQRQLTVSEFRQSFVSEILGGGWLPLDLQPS" qualitative_label="Condition not met"
binder="B8A10 (peptide) MKLLSSIEQACDICRLKKLKCSKEKPKCAKCLKNNWECRYSPKTKRSPLTRAHLTEVESRLERLEQLFLLIFPREDLDMILKMDSLQDIKALLTGLFVQDNVNKDAVTDRLASVETDMPLTLRQHRISATSSSEESSNKGQRQLTVSEFVNWDAVVPWSELVALLDLQPS" qualitative_label="Condition met"

Origin of the recorded values: patent US20040043420A1
